B1: EEHEE_rd4_0363 (parent)
chain: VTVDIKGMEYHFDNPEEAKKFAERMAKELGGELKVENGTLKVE

- Variants of: B1
- protocolDetails: folding stability dG (cDNA display proteolysis); higher = more stable
- runConditions: PBS, room temperature
experimentalReadout: folding stability dG (kcal/mol)
Reply numerically in kcal/mol, unit not repeated.

So for D13F , the logged folding stability dG turned out to be 1.41

So for F12P , the logged folding stability dG turned out to be -0.958

So for L29V , the logged folding stability dG turned out to be 1.14

So for G7E , the logged folding stability dG turned out to be 0.306

So for G30C , the logged folding stability dG turned out to be 2.23

So for P15T , the logged folding stability dG turned out to be 1.52

So for M8R , the logged folding stability dG turned out to be 2.41

So for H11P , the logged folding stability dG turned out to be 0.291

So for M8V , the logged folding stability dG turned out to be 2.52

So for N14V , the logged folding stability dG turned out to be 0.902

So for I5Y , the logged folding stability dG turned out to be 1.52

So for A22C , the logged folding stability dG turned out to be 1.54

So for A18V , the logged folding stability dG turned out to be -0.372

So for A18F , the logged folding stability dG turned out to be 0.719

So for L40Y , the logged folding stability dG turned out to be 2.27

So for R24G , the logged folding stability dG turned out to be 1.29

So for E32L , the logged folding stability dG turned out to be 2.32

So for M8C , the logged folding stability dG turned out to be 2.23

So for P15W , the logged folding stability dG turned out to be 3.73

So for H11C , the logged folding stability dG turned out to be 2.21

So for L29Q , the logged folding stability dG turned out to be 1.06

So for A26P , the logged folding stability dG turned out to be -0.451

So for E43H , the logged folding stability dG turned out to be 2.21

So for E16K , the logged folding stability dG turned out to be 1.33

So for E9M , the logged folding stability dG turned out to be 2.92

So for E36R , the logged folding stability dG turned out to be 1.45

So for K19L , the logged folding stability dG turned out to be 2.74

So for K34G , the logged folding stability dG turned out to be 1.03

So for K19W , the logged folding stability dG turned out to be 3.27

So for G7I , the logged folding stability dG turned out to be 0.499

So for G7H , the logged folding stability dG turned out to be 0.716

So for V3W , the logged folding stability dG turned out to be 0.119

So for T39H , the logged folding stability dG turned out to be 1.93

So for F12E , the logged folding stability dG turned out to be -0.877

So for H11Y , the logged folding stability dG turned out to be 2.36

So for M25I , the logged folding stability dG turned out to be 1.57

So for E9H , the logged folding stability dG turned out to be 2.51

So for K34E , the logged folding stability dG turned out to be 1.02

So for V35N , the logged folding stability dG turned out to be 1.73

So for M8G , the logged folding stability dG turned out to be 0.564

So for E16R , the logged folding stability dG turned out to be 1.27

So for G7Q , the logged folding stability dG turned out to be 0.441

So for H11R , the logged folding stability dG turned out to be 1.87

So for D13P , the logged folding stability dG turned out to be 1.6

So for K6A , the logged folding stability dG turned out to be 2.53

So for V3R , the logged folding stability dG turned out to be -0.231

So for E17L , the logged folding stability dG turned out to be 1.31

So for I5G , the logged folding stability dG turned out to be 0.128

So for L33S , the logged folding stability dG turned out to be 0.81

So for L29A , the logged folding stability dG turned out to be 0.915

So for G31Q , the logged folding stability dG turned out to be 1.32

So for G30P , the logged folding stability dG turned out to be 0.76

So for A22I , the logged folding stability dG turned out to be 1.5

So for D4C , the logged folding stability dG turned out to be 3.39

So for A26E , the logged folding stability dG turned out to be 0.931

So for K19E , the logged folding stability dG turned out to be 1.32

So for E16H , the logged folding stability dG turned out to be 1.63

So for G31E , the logged folding stability dG turned out to be 1.23

So for E43N , the logged folding stability dG turned out to be 1.85

So for K19G , the logged folding stability dG turned out to be 0.835

So for D4G , the logged folding stability dG turned out to be 1.39

So for K34V , the logged folding stability dG turned out to be 2.26

So for E43A , the logged folding stability dG turned out to be 1.94

So for E28R , the logged folding stability dG turned out to be 1.81

So for D13C , the logged folding stability dG turned out to be 2.42

So for P15L , the logged folding stability dG turned out to be 2.6

So for A18H , the logged folding stability dG turned out to be -0.269

So for E32F , the logged folding stability dG turned out to be 2.82

So for L29M , the logged folding stability dG turned out to be 1.69

So for N37Q , the logged folding stability dG turned out to be 1.46

So for E17Y , the logged folding stability dG turned out to be 0.905

So for E28Q , the logged folding stability dG turned out to be 1.75

So for E36Y , the logged folding stability dG turned out to be 1.86

So for E36Q , the logged folding stability dG turned out to be 1.89

So for D4A , the logged folding stability dG turned out to be 2.45

So for A18S , the logged folding stability dG turned out to be -0.064

So for E28K , the logged folding stability dG turned out to be 1.92

So for T2F , the logged folding stability dG turned out to be 1.65

So for F21A , the logged folding stability dG turned out to be -0.089

So for F12H , the logged folding stability dG turned out to be -0.13

So for E16S , the logged folding stability dG turned out to be 1.58

So for H11G , the logged folding stability dG turned out to be 0.524

So for Y10S , the logged folding stability dG turned out to be -0.033

So for E17R , the logged folding stability dG turned out to be 0.908

So for T2L , the logged folding stability dG turned out to be 1.81

So for E9V , the logged folding stability dG turned out to be 2.93

So for F21N , the logged folding stability dG turned out to be -0.807

So for E16V , the logged folding stability dG turned out to be 1.74

So for M8H , the logged folding stability dG turned out to be 1.99

So for H11F , the logged folding stability dG turned out to be 2.13

So for V3D , the logged folding stability dG turned out to be -0.088
